# credit: paper PMC2756588

- assaySystem: T1, Hse1, P38753
- T1 sequence (P38753 208-285, looked up): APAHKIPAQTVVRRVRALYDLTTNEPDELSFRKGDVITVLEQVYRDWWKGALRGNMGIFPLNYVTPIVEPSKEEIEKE
- protocolDetails: SPOT array
- testSettings: median of control spots 1727
Measured SPOT intensity of individual entries
// response body must contain only the number

NNNKMRPHLPPLSSG	24
KTKQQKPAIPQKKSF	6
NLDRSKISLPDFDDE	3
RFKRHRLEFPFNESE	32
YRRKSIPFAPHQITA	9
RHLKLVPSTPMDIPW	134
NRPAIRIPSLKKPAL	20
FPGKKSPRLPHRNKK	8

Dear colleague, please send me the reported SPOT intensity for VRVKKRPLIRPLNSS when you can.
14

Dear colleague, please send me the reported SPOT intensity for KWVRRPKLMTPLTFS when you can.
16

Dear colleague, please send me the reported SPOT intensity for PSTMDFPKLPSFQNS when you can.
0

Dear colleague, please send me the reported SPOT intensity for FVLRYYILIPHEQWD when you can.
2
